test: reversal of MRP1-mediated doxorubicin resistance, pilot screen, H69AR cells, doxorubicin co-treatment (AID 601); conditions: H69AR cells + 2 uM doxorubicin, CellTiter-Glo, 72 h; measured here: viability with 2 uM doxorubicin; at 10 µM; stronger effect = lower value
Measured viability by item

[
  {
    "Compound": "Cc1ccc(-c2nnc(SCC(=O)N3c4ccccc4NC(=O)C3(C)C)n2N)cc1",
    "viability": "91.5%"
  },
  {
    "Compound": "CCCN1CCN(C(=O)Cn2cccc2C(=O)c2ccccc2)CC1",
    "viability": "82.2%"
  },
  {
    "Compound": "CCOc1cccc(Oc2ccc(C(F)(F)F)cn2)c1",
    "viability": "93.3%"
  },
  {
    "Compound": "CCOC(=O)CN(C)Cc1c[nH]c2ccccc12",
    "viability": "98.7%"
  },
  {
    "Compound": "Cc1cc(C)n(CC(=O)NC2CCCCC2)n1",
    "viability": "85.3%"
  },
  {
    "Compound": "Cc1ccc(N(C(C)C(=O)Nc2ccc(S(=O)(=O)N3CCOCC3)cc2)S(C)(=O)=O)cc1 (stereo unspecified)",
    "viability": "106%"
  },
  {
    "Compound": "CCC(C(=O)N1CCc2cc(OC)c(OC)cc2C1)c1ccccc1 (stereo unspecified)",
    "viability": "92%"
  },
  {
    "Compound": "O=C(CNCCC1=CCCCC1)Nc1ccccc1N1CCCCC1",
    "viability": "66.9%"
  }
]

Exam item: Give the measured viability for COc1cc(C(Nc2ccc3c(c2)OCO3)C(=O)NC2CCCCC2)cc(OC)c1OC (stereo unspecified)
Marked response: 99.4%

Exam item: Specify measured viability for COCCOC(=O)C1=C(C)NC(C)=C(C(=O)OC(C)C)C1c1cccc([N+](=O)[O-])c1 (stereo unspecified) .
Marked response: 96.4%

Exam item: Note viability for the compound shown: Cn1c(=O)n(CCC(=O)O)c2ccccc21
Marked response: 84.1%

----------
test: HUVEC growth inhibition – cell-based, human, primary screen (AID 575); details: HUVEC proliferation, CellTiter-Glo luminescence, 72 h; at 10 µM; stronger effect = lower value;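 note: 100% = median of untreated cell wells with 0.1% DMSO on each plate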
Experimental Readout: viability (%)
Only the number, expressed in %, is required.

[
  {
    "Compound": "COc1ccc(CCN2CC(O)=C(c3nc4ccccc4c(=O)[nH]3)C2=N)cc1OC",
    "Unit Symbol": "%",
    "viability": 85.6
  },
  {
    "Compound": "CCOc1ccc2nc(NC(=O)C3CCCN(S(=O)(=O)c4c(C)noc4C)C3)sc2c1 (stereo not drawn)",
    "Unit Symbol": "%",
    "viability": 49.7
  },
  {
    "Compound": "Cc1cc(NC(=O)CCC(=O)N(CC2CCCO2)C(C(=O)NC2CCCC2)c2ccccc2C)no1 (stereo not drawn)",
    "Unit Symbol": "%",
    "viability": 86.4
  },
  {
    "Compound": "CCC(C)(C)NC(=O)CN(C(=O)c1snc(C(N)=O)c1N)c1ccc2c(c1)OCO2",
    "Unit Symbol": "%",
    "viability": 110
  },
  {
    "Compound": "COc1ccc(N2CCN(C(=O)CN3C(=O)C4CC=CCC4C3=O)CC2)cc1 (stereo not drawn)",
    "Unit Symbol": "%",
    "viability": 99.7
  },
  {
    "Compound": "c1ccc(CC2CCN(Cc3nc(-c4ccccc4)no3)CC2)cc1",
    "Unit Symbol": "%",
    "viability": 65.1
  },
  {
    "Compound": "CCOC(=O)Nc1cc(OC)c(OC)cc1Cc1nccc2cc(OC)c(OC)cc12",
    "Unit Symbol": "%",
    "viability": 95.7
  },
  {
    "Compound": "COc1ccc(Cl)cc1NC(=O)COc1cccc(-n2cnnn2)c1",
    "Unit Symbol": "%",
    "viability": 98.5
  }
]

Exam item: Tell me its viability given CCn1nnc(NC(=O)c2ccccc2Br)n1 as the entry.
Marked response: 103

Exam item: Please supply the value of reported viability for the item CCOC(=O)c1nnc2ccnn2c1N
Marked response: 87.9

Exam item: Supply measured viability of COCCn1c(C)c(C(=O)O)sc1=S in your reply.
Marked response: 108

Exam item: Name the recorded viability of the compound listed here: COC(=O)Nc1nc2ccc(C(=O)c3ccccc3)cc2[nH]1
Marked response: 44.3

Exam item: State its viability for this compound: Cc1cc(C)n(CC(=O)O)n1
Marked response: 106

Exam item: Give the reported viability for this compound. CCC1Cc2c(nc3c4c(nc(N5CCOCC5)c(C#N)c24)NC(C)=N3)O1 (stereo not drawn)
Marked response: 94

Exam item: Consider the compound Cc1cn(C2CC3OCC3O2)c(=O)[nH]c1=O (stereo not drawn) . State its measured viability.
Marked response: 110

Exam item: Item Cc1cc(-c2ccccc2)nnc1NCCN1CCOCC1 : provide viability
Marked response: 85.7

----------
assay: HUVEC growth inhibition – cell-based, human, primary screen (AID 575); conditions: HUVEC proliferation, CellTiter-Glo luminescence, 72 h; at 10 µM; stronger effect = lower value;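 note: 100% = median of untreated cell wells with 0.1% DMSO on each plate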
// returns not met unless viability is strictly below 70%, in which case met

Observe how each entry below is paired with its result.
[
  {
    "Compound": "Cc1ccnc(NC(=O)Nc2ccc(F)cc2)c1",
    "Qualitative Label": "not met"
  },
  {
    "Compound": "OC(CCCN1CCC(O)(c2ccc(Cl)cc2)CC1)c1ccc(F)cc1 (centres undefined)",
    "Qualitative Label": "not met"
  },
  {
    "Compound": "CN(C)CCCN1c2ccccc2Sc2ccc(C(F)(F)F)cc21",
    "Qualitative Label": "met"
  },
  {
    "Compound": "CCOC(=O)CN(C)Cc1c[nH]c2ccccc12",
    "Qualitative Label": "not met"
  },
  {
    "Compound": "Cc1nc2sc(C(c3cccc(F)c3)N3CCC(C)CC3)c(O)n2n1 (centres undefined)",
    "Qualitative Label": "not met"
  },
  {
    "Compound": "CCOc1ccccc1OCCCCN1CCCC1",
    "Qualitative Label": "not met"
  },
  {
    "Compound": "CC(=O)[C@H]1[C@H](C#N)C[C@H]2[C@@H]3CC=C4C[C@@H](O)CC[C@]4(C)[C@H]3CC[C@@]21C",
    "Qualitative Label": "not met"
  },
  {
    "Compound": "CCCC1(C(=O)OC)NC(c2cc(OC)c(OC)c(OC)c2)C2C(=O)N(CC)C(=O)C21 (centres undefined)",
    "Qualitative Label": "not met"
  }
]

API: the following record is the query input.
Exam item: Consider COc1ccc(CC(=O)Nc2ccc(OC)c(NC(=O)c3ccco3)c2)cc1 . Does its viability lie strictly below 70%?
Marked response: not met

----------
experiment: 384-well plate pilot, post-Golgi transport modulator project, inhibition of yeast transport mutant growth (AID 636); conditions: absorbance 615 nm, about 18 h, stronger effect = higher value
Experimental Readout: inhibition (%)
# number only, unit % dropped from output

Example cases with answers are listed next.
[
  {
    "Molecule": "c1coc(CN2CN=C(Nc3nc4ccccc4s3)NC2)c1",
    "Observed": -2.3
  },
  {
    "Molecule": "COc1ccc2c(c1)CCc1c(C(=O)N3CC4(C)CC3CC(C)(C)C4)noc1-2 (stereo unspecified)",
    "Observed": -2.34
  },
  {
    "Molecule": "COc1cc2c(C#N)c(N3CCOCC3)nc(N)c2c(N)n1",
    "Observed": -0.13
  },
  {
    "Molecule": "CCCc1ccccc1OCCNC(C)=O",
    "Observed": -3.87
  },
  {
    "Molecule": "CC1CN(C2CCCCC2)c2nc3c(c(=O)[nH]c(=O)n3C)n2C1 (stereo unspecified)",
    "Observed": -1.95
  }
]

Turning now to a further record.
Exam item: Please give measured inhibition of the following entry: CC1CC(=O)c2cnc(NCC3CCCO3)nc2C1 (stereo unspecified)
Marked response: -6.8

----------
assay: 384-well plate pilot, post-Golgi transport modulator project, inhibition of yeast transport mutant growth (AID 636); settings: absorbance 615 nm, about 18 h, stronger effect = higher value
Measured inhibition, listed per entry.
Express your answer in %, writing the number without its unit.

// known answers, use as guide
[
  {
    "Compound": "COC(=O)c1ccccc1NC(=O)C1CC=CCC1C(=O)O (stereo unspecified)",
    "Unit Symbol": "%",
    "inhibition": -9.73
  },
  {
    "Compound": "Cc1csc(NC(=O)CCS(=O)(=O)c2ccc(Br)cc2)n1",
    "Unit Symbol": "%",
    "inhibition": -0.81
  },
  {
    "Compound": "CCOC(=O)CNC(=O)CSc1nc(N(C)C)nc(N2CCOCC2)n1",
    "Unit Symbol": "%",
    "inhibition": -9.86
  }
]

Exam item: Give inhibition for CCCC(=O)Nc1ccccc1-c1nnn(CC(=O)Nc2ccc(OC)cc2)n1
Marked response: -3.33

Exam item: Quote inhibition reported for O=C(Nc1ccc(Cl)cc1C(=O)O)c1ccc2c(c1)C(=O)N(Cc1ccco1)C2=O please.
Marked response: -8.49

Exam item: Tell me measured inhibition for CCn1c(CCC(=O)Nc2nc3c(s2)CCCC3)nc2cc(S(=O)(=O)N(C)C)ccc21 please.
Marked response: 5.27
